# Measured target: ROCK2 (Homo sapiens (Human))
# Sequence (O75116 1-553 limits assumed): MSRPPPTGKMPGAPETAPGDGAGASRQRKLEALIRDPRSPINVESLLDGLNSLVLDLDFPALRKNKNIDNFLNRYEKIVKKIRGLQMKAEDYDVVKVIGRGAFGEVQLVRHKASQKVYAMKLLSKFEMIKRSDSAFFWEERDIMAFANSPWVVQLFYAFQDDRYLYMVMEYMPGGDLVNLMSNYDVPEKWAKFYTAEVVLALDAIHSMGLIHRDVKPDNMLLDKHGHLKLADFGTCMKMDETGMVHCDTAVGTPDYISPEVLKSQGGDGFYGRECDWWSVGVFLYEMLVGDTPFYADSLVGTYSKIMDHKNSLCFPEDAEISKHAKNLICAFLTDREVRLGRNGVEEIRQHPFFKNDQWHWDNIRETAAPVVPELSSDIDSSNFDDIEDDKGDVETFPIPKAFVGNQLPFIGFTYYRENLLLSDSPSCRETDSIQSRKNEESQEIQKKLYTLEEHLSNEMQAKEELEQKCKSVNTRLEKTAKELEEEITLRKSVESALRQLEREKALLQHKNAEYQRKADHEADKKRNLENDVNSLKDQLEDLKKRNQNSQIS
Exam item: assign MET to entries whose IC50 is below 200 nM and NOT MET to entries at or above 200 nM. Note that a value of exactly 200 nM receives NOT MET.

Worked examples, 3 compounds total:
• Cn1c(C(=O)Nc2ccnnc2)cc2ccc(-c3nccc(Nc4ccc5[nH]ncc5c4)n3)cc21 [TDI01201] = MET
• O=C(Nc1ccnnc1)c1cc2ccc(-c3nccc(Nc4ccc5[nH]ncc5c4)n3)cc2s1 [TDI01116] = NOT MET
• CN(C(=O)c1cc2ccc(-c3nccc(Nc4ccc5[nH]ncc5c4)n3)cc2[nH]1)c1ccnnc1 [TDI01347] = NOT MET

Determine if O=C(Nc1ccnnc1)c1c[nH]c2ccc(-c3nccc(Nc4ccc5[nH]ncc5c4)n3)cc12 [TDI01191] shows IC50 strictly lower than 200 nM.
NOT MET

Is IC50 of O=C(Nc1ccnnc1)N1Cc2ccc(-c3nccc(Nc4ccc5[nH]ncc5c4)n3)cc2C1 [TDI01237] strictly below 200 nM?
MET

I wonder whether O=C(Nc1ccnnc1)c1cc2cc(-c3nccc(Nc4ccc5[nH]ncc5c4)n3)ccc2[nH]1 [TDI01188] has IC50 below 200 nM. Can you tell?
MET

State whether 200 nM exceeds IC50 recorded for O=C(Nc1ccnnc1Cl)c1cc2ccc(-c3nccc(Nc4ccc5[nH]ncc5c4)n3)cc2[nH]1 [TDI01180] .
MET
